Temperature at TG −10% (weight reduction temperature) listing for selected compounds.
protocolDescription: Thermogravimetry-differential thermal analysis (TG-DTA), weight reduction temperature
Type: physicochemical
conditionDetails: weight reduced from initial weight by 10%; 10 Pa; temperature rising rate 10° C./min
Express it in °C; write the number only.

Below: 3 compounds and their reported Temperature at TG −10% (weight reduction temperature).
c1ccc(N(c2ccc3c(c2)oc2cc4cc5c(cc4cc23)oc2cc(N(c3ccccc3)c3ccc4c6ccccc6n(-c6ccccc6)c4c3)ccc25)c2ccc3c4ccccc4n(-c4ccccc4)c3c2)cc1 [3,10PCA2Nbf(IV)-02] :: 411
CCc1cc(CC)cc(-n2c3ccccc3c3ccc(N(c4ccccc4)c4ccc5c(c4)oc4cc6cc7c(cc6cc45)oc4cc(N(c5ccccc5)c5ccc6c8ccccc8n(-c8cc(CC)cc(CC)c8)c6c5)ccc47)cc32)c1 [3,10mmEtPCA2Nbf(IV)-02] :: 402
CC(C)(C)c1cc(-n2c3ccccc3c3ccc(N(c4ccccc4)c4ccc5c(c4)oc4cc6cc7c(cc6cc45)oc4cc(N(c5ccccc5)c5ccc6c8ccccc8n(-c8cc(C(C)(C)C)cc(C(C)(C)C)c8)c6c5)ccc47)cc32)cc(C(C)(C)C)c1 [3,10mmtBuPCA2Nbf(IV)-02] :: 394

Consider the record given below.
Form field Temperature at TG −10% (weight reduction temperature), entry CCCCCCc1cc(CCCCCC)cc(-n2c3ccccc3c3ccc(N(c4ccccc4)c4ccc5c(c4)oc4cc6cc7c(cc6cc45)oc4cc(N(c5ccccc5)c5ccc6c8ccccc8n(-c8cc(CCCCCC)cc(CCCCCC)c8)c6c5)ccc47)cc32)c1 [3,10mmHexPCA2Nbf(IV)-02] : 407

----------
protocolDescription: Solubility in a solvent (toluene, 25° C.)
Assay type: physicochemical
conditionDetails: organic solvent or mixture, 1M
Description: The measurement results on the solubility of 3,10PCA2Nbf(IV)-02 and 3,10mmtBuPCA2Nbf(IV)-02 in a solvent are shown below. The solubility in the table are that in toluene at 25° C. […]
observationType: solubility

CC(C)(C)c1cc(-n2c3ccccc3c3ccc(N(c4ccccc4)c4ccc5c(c4)oc4cc6cc7c(cc6cc45)oc4cc(N(c5ccccc5)c5ccc6c8ccccc8n(-c8cc(C(C)(C)C)cc(C(C)(C)C)c8)c6c5)ccc47)cc32)cc(C(C)(C)C)c1 :: < 1000 mM

// moving on: another record for solubility
Form: compound = c1ccc(N(c2ccc3c(c2)oc2cc4cc5c(cc4cc23)oc2cc(N(c3ccccc3)c3ccc4c6ccccc6n(-c6ccccc6)c4c3)ccc25)c2ccc3c4ccccc4n(-c4ccccc4)c3c2)cc1 ; solubility = < 10 mM

----------
protocolDescription: Thermogravimetry-differential thermal analysis (TG-DTA), weight reduction temperature
Assay type: physicochemical
conditionDetails: weight reduced from initial weight by 50%; 10 Pa; temperature rising rate 10° C./min
Quick list: Temperature at TG −50% (weight reduction temperature) per entry.
Only the number, expressed in °C, is required.

# example entries with known answers
CCc1cc(CC)cc(-n2c3ccccc3c3ccc(N(c4ccccc4)c4ccc5c(c4)oc4cc6cc7c(cc6cc45)oc4cc(N(c5ccccc5)c5ccc6c8ccccc8n(-c8cc(CC)cc(CC)c8)c6c5)ccc47)cc32)c1 :: 436
CC(C)(C)c1cc(-n2c3ccccc3c3ccc(N(c4ccccc4)c4ccc5c(c4)oc4cc6cc7c(cc6cc45)oc4cc(N(c5ccccc5)c5ccc6c8ccccc8n(-c8cc(C(C)(C)C)cc(C(C)(C)C)c8)c6c5)ccc47)cc32)cc(C(C)(C)C)c1 :: 423
CCCCCCc1cc(CCCCCC)cc(-n2c3ccccc3c3ccc(N(c4ccccc4)c4ccc5c(c4)oc4cc6cc7c(cc6cc45)oc4cc(N(c5ccccc5)c5ccc6c8ccccc8n(-c8cc(CCCCCC)cc(CCCCCC)c8)c6c5)ccc47)cc32)c1 :: 442

# ---- query compound ----
Record c1ccc(N(c2ccc3c(c2)oc2cc4cc5c(cc4cc23)oc2cc(N(c3ccccc3)c3ccc4c6ccccc6n(-c6ccccc6)c4c3)ccc25)c2ccc3c4ccccc4n(-c4ccccc4)c3c2)cc1 , field Temperature at TG −50% (weight reduction temperature): 442
